Target: T1, Human EphA2 (human, UniProt P29317 24-976)
T1 construct: Endogenous EphA2 in fresh frozen human tumor tissue sections, not a recombinant protein; also called ephrin receptor A2; hEphA2
Assay: IHC/IF on frozen human tumor tissue: NSCLC-SQ
endpoint.label: IHC score

* AB-009816 (antibody, mouse IgG2a, V domains shown, Made on a mouse IgG2a framework) VH: QVQLQQWGAGLLKPSETLSLTCAVYGGSFSDYYWSWIRQPPGKGLEWIGEVNHRGSINYNNYNPSLKSRVTISVDASKNQFSLKLTSVTAADTAVYYCAKPLRPHCTNGVCYSGDAFDIWGQGTMVTVAS VL: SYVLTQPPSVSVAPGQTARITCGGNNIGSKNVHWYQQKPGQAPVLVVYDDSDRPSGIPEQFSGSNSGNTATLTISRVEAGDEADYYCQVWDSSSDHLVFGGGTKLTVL | 1
